Reference for the values: ChEMBL document CHEMBL4689842

Quick list: Population Pyknosed Nuclei (%) per entry.
System: HEK-293T
protocol description: Multiplex assay against HEK293T
Assay type: toxicity, cell-based
test settings: human, 12 h, 10 µM, compound concentration 10 uM, replicate 1
Report the value in % with no unit label.

Worked examples follow.
- molecule: "CN1CCN(c2ccc(OC(F)(F)F)c(Nc3ncc4c(n3)-c3c(c(C(N)=O)nn3CCO)CC4)c2)CC1 [ONVANSERTIB]"
  scale unit: "%"
  Population Pyknosed Nuclei (%): 49
- molecule: "CN1CCC[C@@H]1CCO[C@](C)(c1ccccc1)c1ccc(Cl)cc1.O=C(O)/C=C/C(=O)O [CLEMASTINE FUMARATE]"
  scale unit: "%"
  Population Pyknosed Nuclei (%): 67
- molecule: "Cc1nc(-c2ccc(-c3ccc(C(=O)N4CCc5cc6c(cc54)C4(CCN(C)CC4)CO6)cc3)c(C)c2)no1 [SB-224289]"
  scale unit: "%"
  Population Pyknosed Nuclei (%): 68
- molecule: "Cc1sc2c(c1C)C(c1ccc(Cl)cc1)=N[C@@H](CC(=O)OC(C)(C)C)c1nnc(C)n1-2"
  scale unit: "%"
  Population Pyknosed Nuclei (%): 15
- molecule: "Cc1cc(C)cc(-c2cnc3cc(Cl)c(-c4cccc(O)c4)cc3c2OCCCN)c1"
  scale unit: "%"
  Population Pyknosed Nuclei (%): 74

Looking up O=C1NCN(c2ccccc2)C12CCN(CCCOc1ccc(F)cc1)CC2 [SPIRAMIDE] , I found its Population Pyknosed Nuclei (%) recorded as 70

Looking up "OC1(c2ccc(Cl)cc2)CCN(Cc2c[nH]c3ccccc23)CC1" , I found its Population Pyknosed Nuclei (%) recorded as 77

Looking up C[C@@H](NCCCc1cccc(C(F)(F)F)c1)c1cccc2ccccc12.Cl [CINACALCET HYDROCHLORIDE] , I found its Population Pyknosed Nuclei (%) recorded as 74
